# TARGET: UniProtKB O08962
# Sequence (O08962 whole entry): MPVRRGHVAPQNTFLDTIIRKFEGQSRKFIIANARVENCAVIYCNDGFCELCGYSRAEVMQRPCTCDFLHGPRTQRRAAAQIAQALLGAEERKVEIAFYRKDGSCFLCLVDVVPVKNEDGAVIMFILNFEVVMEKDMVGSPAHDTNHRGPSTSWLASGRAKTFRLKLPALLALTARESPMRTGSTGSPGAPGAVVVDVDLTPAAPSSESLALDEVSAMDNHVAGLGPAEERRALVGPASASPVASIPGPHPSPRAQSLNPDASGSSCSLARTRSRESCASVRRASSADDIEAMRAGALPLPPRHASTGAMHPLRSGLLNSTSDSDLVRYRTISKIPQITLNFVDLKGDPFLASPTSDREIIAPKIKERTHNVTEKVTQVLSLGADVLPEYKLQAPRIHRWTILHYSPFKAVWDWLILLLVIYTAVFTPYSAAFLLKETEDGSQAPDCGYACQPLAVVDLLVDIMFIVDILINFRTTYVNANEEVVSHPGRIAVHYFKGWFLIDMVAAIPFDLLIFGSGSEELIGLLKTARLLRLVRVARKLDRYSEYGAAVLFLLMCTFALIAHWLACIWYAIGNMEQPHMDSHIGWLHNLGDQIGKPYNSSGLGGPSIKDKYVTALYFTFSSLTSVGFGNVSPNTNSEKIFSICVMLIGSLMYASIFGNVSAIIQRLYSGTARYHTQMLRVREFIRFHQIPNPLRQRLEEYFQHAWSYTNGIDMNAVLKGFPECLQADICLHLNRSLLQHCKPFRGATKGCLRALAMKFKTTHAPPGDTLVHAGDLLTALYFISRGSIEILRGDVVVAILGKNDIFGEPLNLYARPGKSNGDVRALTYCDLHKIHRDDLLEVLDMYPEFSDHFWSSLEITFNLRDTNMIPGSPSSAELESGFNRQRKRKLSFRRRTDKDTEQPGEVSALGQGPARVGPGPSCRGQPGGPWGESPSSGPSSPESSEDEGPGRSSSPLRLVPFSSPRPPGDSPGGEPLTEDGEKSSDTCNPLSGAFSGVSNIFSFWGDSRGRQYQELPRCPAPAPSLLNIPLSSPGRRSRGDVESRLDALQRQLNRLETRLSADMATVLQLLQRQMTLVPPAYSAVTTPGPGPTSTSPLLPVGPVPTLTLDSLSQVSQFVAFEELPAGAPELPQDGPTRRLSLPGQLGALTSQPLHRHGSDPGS
# TEST_PROTOCOL: Blockade of cloned erg1 channel in oocytes
# PARTICULARS: mean±s.e.m.
REPORTED_PROPERTY: IC50 (µM)
Field: numeric (µM). Do not append units.

stdin: Fill blank: measured IC50 of the compound O=C1N(c2ccccc2)c2ccccc2C1(Cc1ccncc1)Cc1ccncc1 [Linopirdine] is ____.
stdout: 53

---

# TARGET: M-current (Rattus norvegicus, UniProt O88943+O88944)
# TEST_PROTOCOL: Blockade of native M-current in SCG neurons (voltage clamp, intact ganglia)
# PARTICULARS: rat sympathetic neurons; read-out: KD for TEA blockade of native M-current
REPORTED_PROPERTY: pKd
Please keep in mind that pKd is minus log10 of the molar concentration; only the number is needed.

stdin: Tell me the measured pKd of "CC[N+](CC)(CC)CC" , please.
stdout: 2.21

# credit: patent US20040175691A1
